# Toxicity per entry
Test system: HepG2 cells
Conditions: human, 24 hr

{"columns": ["compound", "Toxicity (µM)"],
 "data": [
  ["CC(=O)O[C@H]1C(=O)[C@@]2(C)[C@H]([C@H](OC(=O)c3ccccc3)[C@]3(O)C[C@H](OC(=O)[C@H](O)[C@@H](NC(=O)c4ccccc4)c4ccccc4)C(C)=C1C3(C)C)[C@]1(OC(C)=O)CO[C@@H]1C[C@@H]2O", 100],
  ["C[C@@]12C=CC[C@H]1[C@@H]1CCC3=CC(=O)CC[C@]3(C)[C@H]1CC2", 100],
  ["C[C@H](CCCC(CO)CO)[C@H]1CC[C@H]2[C@@H]3[C@H](O)C[C@@H]4C[C@H](O)CC[C@]4(C)[C@H]3C[C@H](O)[C@]12C", 50],
  ["CCCOC(=O)c1ccc(O)cc1 [MI27, n-Propyl-4-hydroxybenzoate]", 100],
  ["CC1=C(/C=C/C(C)=C/C=C/C(C)=C/C=C/C=C(C)/C=C/C=C(C)/C=C/C2=C(C)CCCC2(C)C)C(C)(C)CCC1", 100],
  ["C[C@]12CC[C@@H]3c4ccc(O)cc4CC[C@H]3[C@@H]1C[C@@H](O)[C@@H]2O", 200],
  ["C[C@]12CCC(=O)C[C@@H]1CC[C@@H]1[C@@H]2CC[C@]2(C)C=CC[C@@H]12", 100],
  ["O=C1NC(=O)C(c2ccccc2)(c2ccccc2)N1", 200],
  ["CCCCOC(=O)c1ccc(N)cc1 [MI4, n-Butyl-4-aminobenzoate]", 100],
  ["C=C1/C(=C\\C=C2/CCC[C@]3(C)[C@@H]([C@H](C)CCCC(C)C)CC[C@@H]23)C[C@@H](O)C[C@@H]1O [MI43, 1α-Hydroxyvitamin D3]", 50],
  ["C#C[C@]1(O)CC[C@H]2[C@@H]3CCc4cc(O)ccc4[C@H]3CC[C@@]21C", 200],
  ["C=C1/C(=C\\C=C2/CCC[C@]3(C)[C@@H]([C@H](C)/C=C/[C@H](C)C(C)C)CC[C@@H]23)C[C@@H](O)C[C@@H]1O [MI42, 1α-Hydroxyvitamin D2]", 50],
  ["NC(=O)N1c2ccccc2CC(=O)c2ccccc21 [MI23, Oxcarbazepine]", 200]
]}
